tested on: Streptococcus pneumoniae PDF G70V mutant; assay: MIC, culture growth of S. pneumoniae PDF G70V mutant; format: cell-based; conditions: PDFG70VMUTANT
PROPERTY NAME: MIC (mg/L)
The figure you give is taken to be in mg/L; do not add the unit.

// below: answered compounds
Determine its reported MIC: "CCCC[C@H](CN(O)C=O)C(=O)N1C[C@@H](C(C)C)C[C@H]1C(=O)Nc1ccc(F)c[n+]1[O-]"
10.3

Given the compound "CCCC[C@H](CN(O)C=O)C(=O)N1C[C@H](C(C)C)C[C@H]1C(=O)Nc1ccc(F)c[n+]1[O-]" , write its reported MIC.
6.3

Return value of MIC for input "CCCC[C@H](CN(O)C=O)C(=O)N1C[C@H](C(C)C)C[C@H]1C(=O)Nc1ccc(F)cn1" , no commentary.
1.43

Return reported MIC. Input compound: CCCC[C@H](CN(O)C=O)C(=O)N1CCC[C@H]1C(=O)Nc1ccc(F)c[n+]1[O-] [reference compound]
5.8

Report measured MIC; entry is "O=CN(O)C[C@@H](CC1CCCC1)C(=O)N1C[C@H](F)C[C@H]1C(=O)Nc1cnccn1"
0.33

Further cases:
Complete the entry with MIC for "CCCC[C@H](CN(O)C=O)C(=O)N1C[C@@H](C(C)C)C[C@H]1C(=O)Nc1ccc(F)cn1"
2.86

# return recorded MIC for input "O=CN(O)C[C@@H](CC1CCCC1)C(=O)N1C[C@H](F)C[C@H]1C(=O)Nc1cncc[n+]1[O-]"
2.67

###

target: Streptococcus pneumoniae peptide deformylase, wild type (W.T.) (Streptococcus pneumoniae serotype 4)
Sequence (Q9F2F0 whole entry): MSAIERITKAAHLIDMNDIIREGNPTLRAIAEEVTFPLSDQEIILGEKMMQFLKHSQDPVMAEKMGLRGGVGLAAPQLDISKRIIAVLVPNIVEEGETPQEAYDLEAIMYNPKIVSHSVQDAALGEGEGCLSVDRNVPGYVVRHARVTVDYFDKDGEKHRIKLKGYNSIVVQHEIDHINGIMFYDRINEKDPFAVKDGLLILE
pIC50 by entry:
Keep it numeric: pIC50 is minus log10 of the concentration in mol/L.

Before answering, review these 2 worked examples.
Give the reported value of pIC50 for this record: "O=CN(O)C[C@@H](CC1CCCC1)C(=O)N1C[C@H](F)C[C@H]1C(=O)Nc1cnccn1"
9.60

Give pIC50 for "CCCC[C@H](CN(O)C=O)C(=O)N1C[C@H](C(C)C)C[C@H]1C(=O)Nc1ccc(F)cn1"
9.57

# next molecule below
Supply reported pIC50 belonging to this molecule: "O=CN(O)C[C@@H](CC1CCCC1)C(=O)N1C[C@H](F)C[C@H]1C(=O)Nc1cncc[n+]1[O-]"
9.43

###

Test system: Streptococcus pneumoniae PDF G70D mutant
Experiment: MIC, culture growth of S. pneumoniae PDF G70D mutant
Format: cell-based
Conditions: PDFG70DMUTANT
Experimental: Minimum inhibitory concentrations (MICs) are determined using the microdilution method In 96-well format plates. Compounds are suspended in DMSO at 5 or 10 mg/mL and stored at 4° C. until used. They are diluted in Mueller-Hinton Broth (MHB) or Trypticase Soy Broth (TSB) and used for MIC determination. […] To investigate further, the IC50s and MICs of specific pairs of compounds differing only in this feature are determined.
Field: label. Allowed values: 1.0 (MIC < 1 µg/mL) or 0.0 (MIC >= 1 µg/mL).

The following molecules have reported results that may help.
Please let me know if "O=CN(O)C[C@@H](CC1CCCC1)C(=O)N1C[C@H](F)C[C@H]1C(=O)Nc1cnccn1" shows MIC below 1 µg/mL.
1.0

Is 1 µg/mL strictly greater than the molecule's reported MIC? molecule: "CCCC[C@H](CN(O)C=O)C(=O)N1C[C@@H](C(C)C)C[C@H]1C(=O)Nc1ccc(F)c[n+]1[O-]"
0.0

Determine if "CCCC[C@H](CN(O)C=O)C(=O)N1C[C@H](C(C)C)C[C@H]1C(=O)Nc1ccc(F)c[n+]1[O-]" shows MIC strictly lower than 1 µg/mL.
0.0

Input "CCCC[C@H](CN(O)C=O)C(=O)N1C[C@H](C(C)C)C[C@H]1C(=O)Nc1ccc(F)cn1" ; condition: MIC strictly below 1 µg/mL. Does it hold?
0.0

Continuing:
Lab log: compare recorded MIC with 1 µg/mL; is it strictly lower for "CCCC[C@H](CN(O)C=O)C(=O)N1C[C@@H](C(C)C)C[C@H]1C(=O)Nc1ccc(F)cn1" ?
0.0

Quick check: does CCCC[C@H](CN(O)C=O)C(=O)N1CCC[C@H]1C(=O)Nc1ccc(F)c[n+]1[O-] [reference compound] have MIC under 1 µg/mL?
0.0
